# TARGET_SYSTEM: KRAS 4B G12C protein (Homo sapiens, UniProt P01116, G12C)
# Construct: This protein contained 188 amino acids in total, including an N-terminal 6-Histidine tag; made in house; host or cells: E. coli BL21
# METHOD_NOTES: In vitro covalent adduct formation (CAF) assay by LC-MS
# Type: binding
# CONDITION_SET: 60 minutes; compound 10 μM, protein 5 μM, 22° C.; percentage of protein bound by the compound
READOUT: CAF (10 minutes/60 minutes) at 10 micromolar: 60 minutes (%)

INSERT INTO results (molecule, endpoint_result) VALUES
  ('C=CC(=O)N1CCN(c2nc(OC[C@@H]3CCCN3C)nc3c2CN(Cc2c(C)cccc2O)C3)C[C@@H]1CC#N [1-55]', 91),
  ('C=CC(=O)N1CCN(c2nc(OC[C@@H]3CCCN3C)nc3c2CN(Cc2ccc(F)cc2Cl)C3)C[C@@H]1CC#N [1-96]', 93),
  ('C=CC(=O)N1CCN(c2nc(OC[C@@H]3CCCN3C)nc3c2CN(Cc2cc(O)ccc2CC)C3)C[C@@H]1CC#N [1-184]', 97),
  ('C=CC(=O)N1CCN(c2nc(OC[C@@H]3CCCN3C)nc3c2CN(C(C)c2ccccc2C(C)C)C3)C[C@@H]1CC#N (stereo partly shown) [1-189]', 61),
  ('C=CC(=O)N1CCN(c2nc(O[C@@H]3CN(C)C[C@H]3OC)nc3c2CN(Cc2cc(O)ccc2Cl)C3)C2COCC21 (stereo partly shown) [1-336]', 9),
  ('C#C[C@H]1CN(C(=O)C=C)CCN1c1nc(OC[C@@H]2CCCN2C)nc2c1CN(C1CCc3ccccc31)C2 (stereo partly shown) [1-162]', 12);

----------
# TARGET_SYSTEM: KRAS 4B G12C protein (Homo sapiens, UniProt P01116, G12C)
# Construct: This protein contained 188 amino acids in total, including an N-terminal 6-Histidine tag; made in house; host or cells: E. coli BL21
# METHOD_NOTES: In vitro covalent adduct formation (CAF) assay by LC-MS
# Assay type: binding
# CONDITION_SET: 60 minutes; compound 10 μM, protein 5 μM, 22° C.; percentage of protein bound by the compound
READOUT: CAF (10 minutes/60 minutes) at 10 micromolar: 60 minutes

INSERT INTO results (compound, endpoint_result) VALUES
  ('C#CC1CN(c2nc(OC[C@@H]3CCCN3C)nc3c2CN(C2CCc4ccccc42)C3)CCN1C(=O)C=C (stereo partly shown)', '4%'),
  ('C=CC(=O)N1CC2CC(=O)CC1CN2c1nc(OC)nc2c1CN(C1CCc3ccccc31)C2 (stereo not shown)', '0%/ 0%'),
  ('C=CC(=O)N1CCN(c2nc(OC[C@@H]3CCCN3C)nc3c2CN(C2CCOc4ccccc42)C3)C[C@@H]1CC#N (stereo partly shown)', '93%'),
  ('C=CC(=O)N1CC2COCC(C1)N2c1nc(OC[C@@H]2CCCN2C)nc2c1CN(Cc1cc(OC)ccc1Cl)C2', '0%/ 0%'),
  ('C=CC(=O)N1CCN(c2nc(OC[C@@H]3CCCN3C)nc3c2CN(C2CCc4cccc(Cl)c42)C3)C[C@@H]1CC#N (stereo partly shown)', '99%'),
  ('C=CC(=O)N1CCN(c2nc(OC[C@@H]3CCCN3C)nc3c2CN(Cc2cc(OC)ccc2C)C3)C[C@@H]1CC#N', '93%'),
  ('C=CC(=O)N1CCN(c2nc(OC[C@@H]3CCCN3C)nc3c2CN(Cc2cccc4cccc(C)c24)C3)C[C@@H]1CC#N', '86%');

----------
# TARGET_SYSTEM: KRAS 4B G12C protein (Homo sapiens, UniProt P01116, G12C)
# Construct: This protein contained 188 amino acids in total, including an N-terminal 6-Histidine tag; made in house; host or cells: E. coli BL21
# METHOD_NOTES: In vitro covalent adduct formation (CAF) assay by LC-MS
# Type: binding
# CONDITION_SET: 60 minutes; compound 10 μM, protein 5 μM, 22° C.; percentage of protein bound by the compound
READOUT: CAF (10 minutes/60 minutes) at 10 micromolar: 60 minutes (%)

INSERT INTO assay_data (compound, endpoint_result) VALUES
  ('C=CC(=O)N1CC2(C1)CN(c1nc(OC[C@@H]3CCCN3C)nc3c1CN(C1CCc4ccccc41)C3)CCO2 (stereo partly shown) [1-216]', 54),
  ('C=CC(=O)N1CCN(c2nc(OC[C@@H]3CCCN3C)nc3c2CN(Cc2cc(F)cc(F)c2)C3)C[C@@H]1CC#N [1-12]', 74),
  ('C=CC(=O)N1CC2COCC(C1)N2c1nc(OC[C@@H]2CCCN2C)nc2c1CN(Cc1cc(O)ccc1Cl)C2 [1-90]', 12);

----------
# TARGET_SYSTEM: KRAS 4B G12C protein (Homo sapiens, UniProt P01116, G12C)
# Construct: This protein contained 188 amino acids in total, including an N-terminal 6-Histidine tag; made in house; host or cells: E. coli BL21
# METHOD_NOTES: In vitro covalent adduct formation (CAF) assay by LC-MS
# Format: binding
# CONDITION_SET: 10 minutes; compound 10 μM, protein 5 μM, 22° C.; percentage of protein bound by the compound
Rule: CAF (10 minutes/60 minutes) at 10 micromolar: 10 minutes of 90% or more gives Y; anything lower gives N.

INSERT INTO results (compound, class_assignment) VALUES
  ('C=CC(=O)N1CCN(c2nc(O)nc3c2CN(C2CCc4ccccc42)C3)C[C@@H]1CC#N (some centres unmarked) [1-135]', 'N'),
  ('C=CC(=O)N1CCN(c2nc(OC[C@@H]3CCCN3C)nc3c2CN(Cc2c(Cl)ccc4ccccc24)C3)C[C@@H]1CC#N [1-236]', 'Y'),
  ('C=CC(=O)N1CCN(c2nc(OC[C@@H]3CCCN3CC(F)(F)F)nc3c2CN(C2CCc4ccccc42)C3)C[C@@H]1CC#N (some centres unmarked) [1-141]', 'N'),
  ('C=CC(=O)N1CCN(c2nc(OC[C@@H]3CCCN3C)nc3c2CN(Cc2cccc(Cl)c2Cl)C3)C[C@@H]1CC#N [1-81]', 'Y'),
  ('C=C(F)C(=O)N1CCN(c2nc(OC[C@@H]3CCCN3C)nc3c2CN(Cc2c(Cl)ccc(O)c2C)C3)C[C@@H]1CC#N [1-311]', 'Y'),
  ('C=CC(=O)N1C2CC(=O)CC1CN(c1nc(OC[C@@H]3CCCN3C)nc3c1CN(Cc1cc(O)ccc1Cl)C3)C2 [1-328]', 'N'),
  ('C=CC(=O)N1CCN(c2nc(Oc3cccc4c3CN(C)C4)nc3c2CN(C2CCc4ccccc42)C3)C[C@@H]1CC#N (some centres unmarked) [1-174]', 'N'),
  ('C#C[C@H]1CN(C(=O)C=C)CCN1c1nc(OC[C@@H]2CCCN2C)nc2c1CN(C1CCc3ccccc31)C2 (some centres unmarked) [1-162]', 'N'),
  ('C=CC(=O)N1CCN(c2nc(OC[C@@H]3CCCN3C)nc3c2CN(Cc2cc(C)ccc2Cl)C3)C[C@@H]1CC#N [1-80]', 'Y'),
  ('C=CC(=O)N1CCN(c2nc(OC[C@@H]3CCCN3C)nc3c2CN(Cc2ccccc2C(C)C)C3)C[C@@H]1CC#N [1-168]', 'Y'),
  ('C=CC(=O)N1CCN(c2nc(OC[C@@H]3CCCN3C)nc3c2CN(C2CCc4ccccc42)C3)C[C@@H]1C#N (some centres unmarked) [1-155]', 'N'),
  ('C=C(F)C(=O)N1CCN(c2nc(OC[C@@H]3CCCN3C)nc3c2CN(C2CCc4cccc(Cl)c42)C3)C[C@@H]1CC#N (some centres unmarked) [1-153]', 'N'),
  ('C=CC(=O)N1CCN(c2nc(OCCCN3CCOCC3)nc3c2CN(C2CCc4ccccc42)C3)C[C@@H]1CC#N (some centres unmarked) [1-131]', 'N');

----------
# TARGET_SYSTEM: KRAS 4B G12C protein (Homo sapiens, UniProt P01116, G12C)
# Construct: This protein contained 188 amino acids in total, including an N-terminal 6-Histidine tag; made in house; host or cells: E. coli BL21
# METHOD_NOTES: In vitro covalent adduct formation (CAF) assay by LC-MS
# Format: binding
# CONDITION_SET: 10 minutes; compound 10 μM, protein 5 μM, 22° C.; percentage of protein bound by the compound
Threshold 80%: CAF (10 minutes/60 minutes) at 10 micromolar: 10 minutes strictly smaller gives MET, otherwise NOT MET.

INSERT INTO assay_data (molecule, class_assignment) VALUES
  ('C=CC(=O)N1CCN(c2nc(OC[C@@H]3CCCN3C)nc3c2CN(Cc2cccc4ccccc24)C3)C[C@@H]1CC#N', 'NOT MET'),
  ('C=CC(=O)N1CCN(c2nc(OCC3CCCC3)nc3c2CN(Cc2c(F)cccc2OC)C3)C[C@@H]1CC#N', 'MET'),
  ('C=CC(=O)N1CCN(c2nc(OC[C@@H]3CCCN3C)nc3c2CN(C2CCc4ccccc42)C3)C[C@@H]1CCC#N (stereo partly shown)', 'MET'),
  ('C=CC(=O)N1CCN(c2nc(OC[C@@H]3CCCN3C)nc3c2CN(Cc2cc(O)ccc2F)C3)C[C@@H]1CC#N', 'NOT MET'),
  ('C=CC(=O)N1CCN(c2nc(OC[C@@H]3CCCN3C)nc3c2CN(Cc2cccc4ocnc24)C3)C[C@@H]1CC#N', 'MET'),
  ('C=CC(=O)N1CCN(c2nc(OC[C@@H]3CCCN3C)nc3c2CN(Cc2cc(F)ccc2Cl)C3)[C@@H](C)C1', 'MET');

Recorded values, source patent US20210292330A1.
